# Test system: E. Coli RNAP (Escherichia coli, UniProt P0A8T7+P0A8V2)
# Sequence (P0A8V2 whole entry): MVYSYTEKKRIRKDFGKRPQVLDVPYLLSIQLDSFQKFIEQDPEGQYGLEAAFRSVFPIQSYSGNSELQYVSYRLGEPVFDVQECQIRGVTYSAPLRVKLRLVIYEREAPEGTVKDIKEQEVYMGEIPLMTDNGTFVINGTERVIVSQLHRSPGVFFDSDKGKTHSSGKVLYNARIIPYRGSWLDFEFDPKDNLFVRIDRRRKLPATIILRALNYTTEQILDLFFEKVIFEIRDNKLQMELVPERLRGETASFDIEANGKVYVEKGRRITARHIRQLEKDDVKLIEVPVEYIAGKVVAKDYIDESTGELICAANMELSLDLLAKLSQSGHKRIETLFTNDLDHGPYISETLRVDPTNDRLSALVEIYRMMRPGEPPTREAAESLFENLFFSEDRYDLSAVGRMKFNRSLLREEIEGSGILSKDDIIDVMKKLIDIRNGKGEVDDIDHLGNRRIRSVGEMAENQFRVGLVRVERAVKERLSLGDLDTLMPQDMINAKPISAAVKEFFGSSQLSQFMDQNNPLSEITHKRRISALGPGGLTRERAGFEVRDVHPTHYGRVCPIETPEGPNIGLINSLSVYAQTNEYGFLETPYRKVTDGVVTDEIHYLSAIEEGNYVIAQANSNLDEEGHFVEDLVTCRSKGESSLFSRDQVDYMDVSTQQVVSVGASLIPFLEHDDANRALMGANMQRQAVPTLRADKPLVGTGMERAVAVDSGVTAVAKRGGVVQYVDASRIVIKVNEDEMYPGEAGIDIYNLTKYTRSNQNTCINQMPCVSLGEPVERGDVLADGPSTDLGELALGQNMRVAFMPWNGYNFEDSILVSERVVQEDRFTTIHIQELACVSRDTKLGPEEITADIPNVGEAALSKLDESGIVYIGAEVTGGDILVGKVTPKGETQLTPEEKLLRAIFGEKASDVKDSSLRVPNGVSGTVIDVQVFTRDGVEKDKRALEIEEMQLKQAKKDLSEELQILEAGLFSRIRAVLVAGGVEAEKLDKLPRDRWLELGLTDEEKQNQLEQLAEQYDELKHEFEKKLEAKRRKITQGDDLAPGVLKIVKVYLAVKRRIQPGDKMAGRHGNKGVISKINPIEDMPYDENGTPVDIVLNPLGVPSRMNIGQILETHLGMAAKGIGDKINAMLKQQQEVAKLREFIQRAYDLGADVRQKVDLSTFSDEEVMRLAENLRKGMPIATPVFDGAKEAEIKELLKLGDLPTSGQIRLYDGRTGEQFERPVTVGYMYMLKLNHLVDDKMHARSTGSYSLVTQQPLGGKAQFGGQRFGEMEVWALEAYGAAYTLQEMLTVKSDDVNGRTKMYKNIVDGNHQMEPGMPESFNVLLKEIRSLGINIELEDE
# Sequence (P0A8T7 whole entry): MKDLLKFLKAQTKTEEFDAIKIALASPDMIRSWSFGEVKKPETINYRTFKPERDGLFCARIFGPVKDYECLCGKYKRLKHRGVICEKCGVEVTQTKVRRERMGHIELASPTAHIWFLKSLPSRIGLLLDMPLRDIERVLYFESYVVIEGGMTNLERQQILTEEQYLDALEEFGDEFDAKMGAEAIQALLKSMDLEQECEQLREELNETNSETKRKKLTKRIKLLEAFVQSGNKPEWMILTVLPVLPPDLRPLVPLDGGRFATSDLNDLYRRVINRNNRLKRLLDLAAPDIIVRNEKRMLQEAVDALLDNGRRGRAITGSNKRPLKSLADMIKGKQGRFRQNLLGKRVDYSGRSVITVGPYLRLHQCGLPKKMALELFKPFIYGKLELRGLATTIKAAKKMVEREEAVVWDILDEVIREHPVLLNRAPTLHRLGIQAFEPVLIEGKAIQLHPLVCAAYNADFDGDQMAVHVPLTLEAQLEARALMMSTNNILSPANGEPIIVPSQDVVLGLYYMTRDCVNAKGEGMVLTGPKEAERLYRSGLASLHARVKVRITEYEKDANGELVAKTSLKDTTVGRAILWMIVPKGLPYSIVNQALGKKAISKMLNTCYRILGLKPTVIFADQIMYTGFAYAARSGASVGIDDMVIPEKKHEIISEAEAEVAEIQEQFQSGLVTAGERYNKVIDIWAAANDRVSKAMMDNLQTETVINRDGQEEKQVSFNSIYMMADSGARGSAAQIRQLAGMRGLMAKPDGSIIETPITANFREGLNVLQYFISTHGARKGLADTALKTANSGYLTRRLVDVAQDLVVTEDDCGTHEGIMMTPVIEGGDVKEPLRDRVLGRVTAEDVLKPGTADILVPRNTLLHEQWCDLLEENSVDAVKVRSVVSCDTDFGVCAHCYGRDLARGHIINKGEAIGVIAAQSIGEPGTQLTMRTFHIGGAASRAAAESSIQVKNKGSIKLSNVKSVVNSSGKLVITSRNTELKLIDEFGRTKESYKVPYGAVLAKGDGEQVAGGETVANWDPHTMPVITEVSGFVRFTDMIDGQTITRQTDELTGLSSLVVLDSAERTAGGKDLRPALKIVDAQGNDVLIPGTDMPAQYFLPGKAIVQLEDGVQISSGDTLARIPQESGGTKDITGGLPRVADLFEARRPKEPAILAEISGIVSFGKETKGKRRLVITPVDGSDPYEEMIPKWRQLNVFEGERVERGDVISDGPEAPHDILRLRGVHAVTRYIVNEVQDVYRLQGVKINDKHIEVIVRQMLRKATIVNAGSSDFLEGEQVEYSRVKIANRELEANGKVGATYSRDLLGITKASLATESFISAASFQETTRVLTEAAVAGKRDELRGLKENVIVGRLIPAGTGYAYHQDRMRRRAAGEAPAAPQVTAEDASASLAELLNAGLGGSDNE
# Sequence (P0A7Z4 whole entry partner): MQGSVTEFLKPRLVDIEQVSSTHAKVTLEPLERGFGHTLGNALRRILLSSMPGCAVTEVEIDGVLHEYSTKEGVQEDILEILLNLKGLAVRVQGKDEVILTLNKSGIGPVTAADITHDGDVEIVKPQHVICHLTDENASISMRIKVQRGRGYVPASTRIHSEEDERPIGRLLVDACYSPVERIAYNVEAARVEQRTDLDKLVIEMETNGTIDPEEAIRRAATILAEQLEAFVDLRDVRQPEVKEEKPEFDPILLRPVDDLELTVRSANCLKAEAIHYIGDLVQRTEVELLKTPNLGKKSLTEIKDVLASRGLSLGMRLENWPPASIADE
# Sequence (P0A800 whole entry partner): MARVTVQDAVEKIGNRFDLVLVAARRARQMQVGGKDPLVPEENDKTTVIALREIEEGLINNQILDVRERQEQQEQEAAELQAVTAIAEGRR
# Protocol text: In vitro activity against E. Coli RNAP
# Run conditions: read-out: RNA IC50
The entries below are paired with their reported IC50.
The answer is to be given in µM; state only the numeric part.

>>> result_value("CCOC(=O)C12C(=O)C(=C(O)CC(C)(C)CC(=O)OCCC34CC5CC(CC(C5)C3)C4)C(=O)N1C(C(C)(C)C)OC2C (racemic) [Compound 6G]")
2.4
>>> result_value("CC(C)(C)C1OCC2(C)C(=O)C(C(=O)NC34CC5CC(CC(C5)C3)C4)C(=O)N12 (racemic) [(±)-2A]")
17

State, in one line, measured IC50 of CC(C)(C)C1OCC2(C)C(O)=C(C(=O)NCC3CCCCC3)C(=O)N12 (racemic) [(±)-2E]
31

For CCOC(=O)C12C(=O)C(=C(O)CC34CC5CC(C)(CC(C)(C5)C3)C4)C(=O)N1C(C(C)(C)C)OC2C (racemic) [Compound 6C] , write its IC50.
4

###

# System: human embryonic kidney 293 cells
# Protocol text: in vitro toxicities against human embryonic kidney 293 cells
# Type: cell-based
Measurement label: HEK LD50 (µM)
All answers are understood in µM, so give the number only.

Illustrative cases are given below, each with its answer.
>>> result_value("CCOC(=O)C12C(=O)C(=C(O)CC34CC5CC(C)(CC(C)(C5)C3)C4)C(=O)N1C(C(C)(C)C)OC2C (racemic) [Compound 6C]")
90.9
>>> result_value("CC(C)(C)C1OCC2(C)C(=O)C(C(=O)NC34CC5CC(CC(C5)C3)C4)C(=O)N12 (racemic) [(±)-2A]")
30.3
>>> result_value("CC(C)(C)C1OCC2(C)C(O)=C(C(=O)NCC3CCCCC3)C(=O)N12 (racemic) [(±)-2E]")
90.9

Moving on to another compound below.
Report HEK LD50, nothing else, for this compound: CCOC(=O)C12C(=O)C(=C(O)CC(C)(C)CC(=O)OCCC34CC5CC(CC(C5)C3)C4)C(=O)N1C(C(C)(C)C)OC2C (racemic) [Compound 6G]
10.1

###

# Tested on: S. aureus 26, ATCC25923 (vancomycin susceptible)
# Protocol text: MIC determination (bacteria), S26
# Type: cell-based
The following compounds are shown together with reported MIC S26 values.
Kindly answer with a numeric value in µg/mL, unit omitted.

// known answers, use as guide
>>> result_value("CCOC(=O)C12C(=O)C(=C(O)CC34CC5CC(C)(CC(C)(C5)C3)C4)C(=O)N1C(C(C)(C)C)OC2C (racemic)")
2
>>> result_value("CC(C)(C)C1OCC2(C)C(O)=C(C(=O)NCC3CCCCC3)C(=O)N12 (racemic) [(±)-2E]")
4
>>> result_value("CCOC(=O)C12C(=O)C(=C(O)CC(C)(C)CC(=O)OCCC34CC5CC(CC(C5)C3)C4)C(=O)N1C(C(C)(C)C)OC2C (racemic)")
1

Note: attention shifts to another entry.
Please report MIC S26 for the following compound: CC(C)(C)C1OCC2(C)C(=O)C(C(=O)NC34CC5CC(CC(C5)C3)C4)C(=O)N12 (racemic) [(±)-2A]
2

###

# Test system: E. coli X580
# Protocol text: hole-plate method, inhibition zones, E. coli
# Type: cell-based
# Run conditions: inhibition zone diameter, 0.01 mg/ml
# key: entry, value: Bioactivity (mm) E. coli 0.01 mg/ml
Record the result as number plus unit.

Below are worked cases with known answers.
>>> result_value("O=C(NC12CC3CC(CC(C3)C1)C2)C1=C(O)C2CS[C@@H](c3ccccc3)N2C1=O (stereo partly shown)")
"15 mm"
>>> result_value("O=C(NC12CC3CC(CC(C3)C1)C2)C1=C(O)C2CS[C@@H](c3ccc([N+](=O)[O-])cc3)N2C1=O (stereo partly shown)")
"14 mm"
>>> result_value("O=C(NC12CC3CC(CC(C3)C1)C2)C1=C(O)C2CS[C@@H](c3ccc(F)cc3)N2C1=O (stereo partly shown)")
"14 mm"

// switching to the query molecule
Tell me measured Bioactivity (mm) E. coli 0.01 mg/ml for O=C(NC12CC3CC(CC(C3)C1)C2)C1=C(O)C2CS[C@@H](c3ccc(F)cc3Cl)N2C1=O (stereo partly shown) please.
14 mm

Cited source for all entries: patent US9981986B2
